Every entry's value here was drawn from patent US20240199654A1.

Target: LRBA and CTLA-4 reporting system (Homo sapiens, UniProt P16410+P50851)
Sequence (P16410 36-223): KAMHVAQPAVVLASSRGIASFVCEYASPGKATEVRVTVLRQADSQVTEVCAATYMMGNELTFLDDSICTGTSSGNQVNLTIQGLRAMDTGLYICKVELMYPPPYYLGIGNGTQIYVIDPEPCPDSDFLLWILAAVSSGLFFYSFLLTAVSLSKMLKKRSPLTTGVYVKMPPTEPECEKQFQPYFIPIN
Sequence (P50851 whole entry): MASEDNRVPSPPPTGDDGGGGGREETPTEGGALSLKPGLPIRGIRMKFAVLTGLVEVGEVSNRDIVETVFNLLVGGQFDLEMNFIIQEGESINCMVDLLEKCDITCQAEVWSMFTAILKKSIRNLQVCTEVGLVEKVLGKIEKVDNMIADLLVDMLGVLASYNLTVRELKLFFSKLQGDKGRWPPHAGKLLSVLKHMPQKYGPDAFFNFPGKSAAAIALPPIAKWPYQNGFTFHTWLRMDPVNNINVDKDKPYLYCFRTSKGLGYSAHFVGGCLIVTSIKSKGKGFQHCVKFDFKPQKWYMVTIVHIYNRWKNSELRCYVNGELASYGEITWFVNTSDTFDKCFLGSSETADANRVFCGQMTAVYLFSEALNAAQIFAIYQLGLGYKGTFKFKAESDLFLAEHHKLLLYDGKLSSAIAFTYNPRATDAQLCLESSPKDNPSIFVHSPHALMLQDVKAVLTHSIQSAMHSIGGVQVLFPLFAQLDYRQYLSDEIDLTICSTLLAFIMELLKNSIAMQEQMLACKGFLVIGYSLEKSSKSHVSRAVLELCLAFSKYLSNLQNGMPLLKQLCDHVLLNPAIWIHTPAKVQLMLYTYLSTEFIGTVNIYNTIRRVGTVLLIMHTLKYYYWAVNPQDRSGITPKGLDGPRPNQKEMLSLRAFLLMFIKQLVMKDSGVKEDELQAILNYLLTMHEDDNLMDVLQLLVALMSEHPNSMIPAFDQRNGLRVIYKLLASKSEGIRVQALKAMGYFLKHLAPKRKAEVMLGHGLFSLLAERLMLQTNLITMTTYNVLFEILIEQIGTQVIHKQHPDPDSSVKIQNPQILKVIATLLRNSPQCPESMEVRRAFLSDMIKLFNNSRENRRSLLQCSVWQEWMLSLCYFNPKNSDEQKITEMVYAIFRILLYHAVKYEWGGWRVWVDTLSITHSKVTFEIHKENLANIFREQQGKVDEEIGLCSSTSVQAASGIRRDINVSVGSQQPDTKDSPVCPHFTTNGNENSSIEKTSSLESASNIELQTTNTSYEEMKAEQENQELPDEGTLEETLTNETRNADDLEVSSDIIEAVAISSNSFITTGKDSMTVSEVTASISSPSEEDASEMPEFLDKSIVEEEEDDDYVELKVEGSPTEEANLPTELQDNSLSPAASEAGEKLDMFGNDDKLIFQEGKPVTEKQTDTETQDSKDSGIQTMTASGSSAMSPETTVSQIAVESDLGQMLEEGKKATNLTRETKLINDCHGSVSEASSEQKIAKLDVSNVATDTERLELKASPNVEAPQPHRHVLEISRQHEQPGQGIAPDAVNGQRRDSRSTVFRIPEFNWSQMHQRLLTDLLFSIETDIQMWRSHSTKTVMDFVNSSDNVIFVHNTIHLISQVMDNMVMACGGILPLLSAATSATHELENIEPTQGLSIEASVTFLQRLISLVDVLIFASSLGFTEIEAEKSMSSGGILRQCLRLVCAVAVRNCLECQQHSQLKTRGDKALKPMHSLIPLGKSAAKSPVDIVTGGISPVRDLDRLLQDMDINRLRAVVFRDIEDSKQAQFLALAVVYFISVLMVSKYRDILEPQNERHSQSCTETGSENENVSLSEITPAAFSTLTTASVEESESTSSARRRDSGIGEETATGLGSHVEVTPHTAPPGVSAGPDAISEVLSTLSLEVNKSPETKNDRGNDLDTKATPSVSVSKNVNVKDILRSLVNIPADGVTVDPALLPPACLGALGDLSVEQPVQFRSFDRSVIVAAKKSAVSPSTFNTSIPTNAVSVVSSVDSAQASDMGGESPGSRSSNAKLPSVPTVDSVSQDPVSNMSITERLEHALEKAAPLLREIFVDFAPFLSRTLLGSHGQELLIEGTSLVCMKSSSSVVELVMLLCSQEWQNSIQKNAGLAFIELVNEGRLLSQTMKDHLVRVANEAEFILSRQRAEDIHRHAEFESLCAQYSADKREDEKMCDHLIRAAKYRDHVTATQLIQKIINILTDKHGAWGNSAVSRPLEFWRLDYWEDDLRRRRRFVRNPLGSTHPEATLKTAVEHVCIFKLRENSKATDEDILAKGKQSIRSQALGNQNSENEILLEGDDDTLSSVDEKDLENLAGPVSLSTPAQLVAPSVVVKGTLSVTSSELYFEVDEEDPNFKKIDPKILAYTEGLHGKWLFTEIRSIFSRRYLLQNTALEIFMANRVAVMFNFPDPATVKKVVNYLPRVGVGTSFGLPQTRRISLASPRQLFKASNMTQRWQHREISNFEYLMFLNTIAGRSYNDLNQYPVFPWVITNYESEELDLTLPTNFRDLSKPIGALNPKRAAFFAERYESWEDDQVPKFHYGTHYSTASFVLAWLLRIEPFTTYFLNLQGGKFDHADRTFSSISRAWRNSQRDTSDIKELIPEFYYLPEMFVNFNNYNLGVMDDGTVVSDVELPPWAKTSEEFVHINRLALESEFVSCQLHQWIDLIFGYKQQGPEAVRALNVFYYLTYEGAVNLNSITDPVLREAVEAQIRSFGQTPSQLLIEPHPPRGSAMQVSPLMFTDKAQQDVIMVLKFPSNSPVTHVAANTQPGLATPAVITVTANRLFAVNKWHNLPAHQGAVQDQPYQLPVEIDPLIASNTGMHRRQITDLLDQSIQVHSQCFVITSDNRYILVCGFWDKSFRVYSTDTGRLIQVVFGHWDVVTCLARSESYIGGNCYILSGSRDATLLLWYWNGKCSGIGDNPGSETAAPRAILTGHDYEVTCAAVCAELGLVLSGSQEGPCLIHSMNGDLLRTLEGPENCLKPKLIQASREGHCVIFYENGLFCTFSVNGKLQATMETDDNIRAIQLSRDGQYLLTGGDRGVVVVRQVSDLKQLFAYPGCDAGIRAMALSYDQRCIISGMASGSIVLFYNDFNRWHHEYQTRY
Experiment: LRBA/CTLA-4 protein-protein interaction reporting system, dual luciferase assay in HEK293 cells
Conditions: HEK293 cells co-transfected with LRBA and CTLA-4 reporting system, 24 h after dosing; read-out: In vitro activity (IC50: concentration of compounds that inhibit 50% of reporting system activity)
Description: HEK293 cells were spread on 96-well plates, and LRBA and CTLA-4 reporting system were co-transfected into HEK293 cells after 24 h. After 24 h, different compounds with final concentrations of 0.01, 0.033, 0.10, 0.33, 1.00, 3.33, 10.00, 33.33, and 100.00 μM were added. […] Then the activity of the compounds were detected by the dual luciferase assay kit, and IC50 values were calculated according to the results. […]
# Lookup of reported IC50 keyed by entry
Observation type: IC50

• COc1ccc(-c2ccnc(N3CCNCC3)n2)cc1OC = > 2 µM
• c1ccc2ncc(-c3ncnc(N4CCNCC4)n3)cc2c1 = < 0.2 µM
• Nc1cc(-c2cnc3ccccc3c2)nc(N2CCNCC2)n1 = < 0.2 µM
• C[C@@H]1CN(c2nccc(-c3cnc4ccccc4c3)n2)C[C@H](C)N1 = > 2 µM

----------
target: LRBA and CTLA-4 reporting system (Homo sapiens, UniProt P16410+P50851); assay: LRBA/CTLA-4 protein-protein interaction reporting system, dual luciferase assay in HEK293 cells; conditions: HEK293 cells co-transfected with LRBA and CTLA-4 reporting system, 24 h after dosing; read-out: In vitro activity (IC50: concentration of compounds that inhibit 50% of reporting system activity)
Each entry below carries its reported IC50.
Observation type: IC50

* c1ccc2c(-c3ccnc(N4CCNCC4)n3)c[nH]c2c1 | 200 to 1000 nM
* c1ccc2ncc(-c3nc(N4CCNCC4)ncc3C3CC3)cc2c1 | < 200 nM
* COc1ccc(-c2cc(-c3cnc4ccccc4c3)nc(N3CCNCC3)n2)cc1 | < 200 nM
* NCC1CCN(c2cc(-c3cnc4ccccc4c3)ccn2)CC1 | > 2000 nM
* CN1CCN(c2nccc(-c3cnc4ccccc4c3)n2)CC1 | > 2000 nM
* c1cc(-c2ccc3c(c2)OCCO3)nc(N2CCNCC2)n1 | > 2000 nM
* NCC1CCN(c2nccc(-c3cnc4ccc(F)cc4c3)n2)CC1 | 200 to 1000 nM
* Cn1ncc2c(-c3cnc4ccccc4c3)nc(N3CCNCC3)nc21 | 1000 to 2000 nM
* NCC1CCN(c2nccc(-c3ccc4ncccc4c3)n2)CC1 | > 2000 nM
